Experiment: NCI Yeast Anticancer Drug Screen. Data for the bub3 strain (AID 167)
Details: S. cerevisiae bub3 mutant strain, at 50.0 µM, active compounds read high
This is part of a sample that, as a whole, favours compounds with a hit. Of some 79,000 tested, about 15% had one in any assay. Where a SMILES comes first, the peptide text is derived from it. [ ]: non-standard residue; d: D form. The star is where a group is joined. ξ: configuration not given here. ξF = NC(Cc1ccccc1)C(=O)O; Cbz = O=C(OCc1ccccc1)*; Sar = CNCC(=O)O
endpoint: growth inhibition (%)
Form entry: value (%) — number only.

Example molecules with recorded growth inhibition:
CCCCCC/C(C)=N\NC(N)=O: -0.95
c1ccc(C(=NN(CCCCN(N=C(c2ccccc2)c2ccccc2)c2ccccc2)c2ccccc2)c2ccccc2)cc1: 0.05
C=C1C(OC(=O)/C=C/c2ccccc2)CC(OC(C)=O)C2(C)C1CC1CC(OC(C)=O)C(C)=C(C(OC(C)=O)C2OC(C)=O)C1(C)C (stereo not drawn): 25.4
CNC(=O)c1cccc([N+](=O)[O-])c1: 7.25
Nc1nnc(/C=C/c2ccc(Cl)cc2)o1: -18.6

For CN(CC(=O)NC(Cc1ccccc1)C(=O)O)C(=O)OCc1ccccc1 (stereo not drawn) (Cbz-[Sar]-[ξF]-OH) the molecule record lists growth inhibition as -16.1

For O=C1c2ccccc2C(C2c3ccccc3C(=O)c3cc(Br)ccc32)c2ccc(Br)cc21 (stereo not drawn) the molecule record lists growth inhibition as -14.1

For "O=C(Nc1ccccc1)Nc1ccccc1C(=O)O" the molecule record lists growth inhibition as -16.2

For c1ccc2c(c1)C1CC3N=NC1C23 (stereo not drawn) the molecule record lists growth inhibition as 3.8

For "O=C(Cl)c1cccc2c([N+](=O)[O-])cccc12" the molecule record lists growth inhibition as -1.4

For "CS(=O)(=O)Nc1ccc(NS(C)(=O)=O)cc1" the molecule record lists growth inhibition as 2.9

For "CCOC(=O)c1ccc(CSc2ccc(OC)cc2)cc1" the molecule record lists growth inhibition as 80.5

For "Oc1ccc(Cl)cc1Cc1cc(Cl)cc(Cc2cc(Cl)cc(Cc3cc(Cl)cc(Cc4cc(Cl)ccc4O)c3O)c2O)c1O" the molecule record lists growth inhibition as -26

For "CC(C)(C)N(O)c1ccc(P(=O)(c2ccccc2)c2ccccc2)cc1" the molecule record lists growth inhibition as -2.35

For "c1ccc(CCN(c2ccccc2)c2ccccc2)cc1" the molecule record lists growth inhibition as 7.55

====

# reported growth inhibition; entries follow
Test: NCI Yeast Anticancer Drug Screen. Data for the mlh1 rad18 strain (AID 175)
Conditions: S. cerevisiae mlh1 rad18 strain growth inhibition; at 50.0 µM; active compounds read high
The panel holds about 79,000 compounds, 15% with a hit somewhere; the sample as a whole holds those more often.
Form entry: value (%) — number only.

Example molecules with recorded growth inhibition:
COC(=O)c1noc2c1CSC1=C2CS(=O)(=O)c2ccccc21: 26.6
Clc1ccc(Cl)c(NNc2cc(Cl)ccc2Cl)c1: -34.5
CCOC(=O)C1S(=O)(=O)OCCOS1(=O)=O: -27.8

For "[N-]=[N+]=NC1=NNC2(C(=O)N1)c1ccccc1-c1ccccc12" the molecule record lists growth inhibition as -18.6

For "CC(C)(C)N=C1CC(C)(C)c2ccccc2C(=Nc2ccccc2)S1" the molecule record lists growth inhibition as 15.3

For "COc1ccccc1Nc1nc2c([nH]1)c(=O)n(C)c(=O)n2C" the molecule record lists growth inhibition as -5.85

For "O=C1C(=O)N(CN2CCCCC2)c2ccccc21" the molecule record lists growth inhibition as 17.9

For "FC12CCC(F)(CC1)CC2" the molecule record lists growth inhibition as -2.55

For "CC(=O)Nc1ccc(S(=O)(=O)NNc2nc(N3CCCC3)nc(N3CCCC3)n2)cc1" the molecule record lists growth inhibition as 2.15

For "Cc1ccc(Br)c2c1CCC2=O" the molecule record lists growth inhibition as 1.65

For "C/C=C/C1OCC(C)(C)CO1" the molecule record lists growth inhibition as -1.5

For "Cc1ncc2c[n+]([O-])ccn12" the molecule record lists growth inhibition as 7.8

For "Nc1cc(N)nc(S(=O)(=O)O)n1" the molecule record lists growth inhibition as -12.9

For CC1=NOC2(C1)/C(=N/O)CCC/C2=N\O (stereo unspecified) the molecule record lists growth inhibition as 0.45

These measurements were taken from PubChem BioAssay (NCI).
